System: TO-N3 (biotin conjugate)
Assay: pull-down binding Z-score (relative to library population); higher = stronger binding
Conditions: RNA library: Library-2
I'd appreciate it if you could supply pull-down binding Z-score values for the items below.
Answer with the value's number alone.

Entry CACUCCCGGGAUCCCCAGGGAC [hsa-mir-3176] : reported pull-down binding Z-score = ? 0.25

Entry UGUGGUUGGGGCCAUGGCGGGUGGGCAGCCCAGCCUCUGAGCCUUCCU [hsa-mir-1238] : reported pull-down binding Z-score = ? 2.76

Entry GGAGCUCUGUGCCUUUGGGUCCUGGUGAGCUCU [hsa-mir-6070] : reported pull-down binding Z-score = ? 0.413

Entry CAAGAGGUGUGAGCCACACACACGCCUGGCCUCCUG [hsa-mir-5699] : reported pull-down binding Z-score = ? 0.813

Entry ACCAAAACACUCAUCGCGG [hsa-mir-1260a] : reported pull-down binding Z-score = ? -0.188

Entry CCGACUCGGGCUCUGGAGCAGUC [hsa-mir-152] : reported pull-down binding Z-score = ? 1.09

Entry `GCUGGCCUUGAAGCCCCUUUUCUCUAUCUUUAUGCUUUAGUCUACUUCUUGCAGAGUAUAAACUUUGUAAGAAUAAUAAUGAGGCUUUGGCUUUGC` : reported pull-down binding Z-score = ? -0.969

Entry AUUGCAUGUUCUGGUGGUACCCAUGCAAU [hsa-mir-33a] : reported pull-down binding Z-score = ? 0.127

Entry GGAAGGGAGCCCCAUUUACAGUGGUAACUUCCUUUCC [hsa-mir-5006] : reported pull-down binding Z-score = ? 1.3

Entry UGAUGGUGUUCCAUUUGUAGUUUCAACUGGAUACCACUUCA [DMSMaPseq_invitro_SARS-CoV-2_Motif_261] : reported pull-down binding Z-score = ? -0.387

Entry `GUGGAUGGUUAUGUUCAC` : reported pull-down binding Z-score = ? -0.236

Entry CUGACCCGUUGUCAGACCUGGAAAAAGGGCCGGCUGUGGGCAGGGAGG [hsa-mir-4761] : reported pull-down binding Z-score = ? 4.2

Entry CCUCGUACAAAAUUUUCAAGAUCGAAAAGGGG [IAV_invivo_NA_6_Motif_10+IAV_invivo_NA_6_Motif_10] : reported pull-down binding Z-score = ? -0.362

Entry UCACAAUUGCGCUACAGAACUGUUGA [hsa-mir-203b] : reported pull-down binding Z-score = ? 1.12

Entry GAACUAACUAACCAGAACUAUUUUGUUC [hsa-mir-4652] : reported pull-down binding Z-score = ? -0.0697

Entry AAGGGUGUAUGAGAGAUCAACCCUU [hsa-mir-5697] : reported pull-down binding Z-score = ? 1.07

Entry GCCUCGCUUCCUGCCGGCGCGGC [hsa-mir-1538] : reported pull-down binding Z-score = ? -0.389

Entry AUCUUCUGCAGGCUGCUUACGGUUUCGUCCGUGUUGCAGCCGAUCAUCAGCACAUCUAGGUUUUGUCCGGGUGUGACCGAAAGGUAAGAU [DMSMaPseq_invitro_SARS-CoV-2_Multi_2_ComplexLevel_1] : reported pull-down binding Z-score = ? -1.06

Entry CCCACCAUGUACCAGUGGG [hsa-mir-4422] : reported pull-down binding Z-score = ? -0.813

Entry `AAACGAACUAAAUAUUAUAUUAGUUUUUCUGUUU` : reported pull-down binding Z-score = ? -0.211
